- Test system: TK-10 renal
- ASSAY PROCEDURE: NCI tumour cell line growth inhibition, 48 h; in the data active means GI50 below about 0.43 µM; inactive means the rest
Give one outcome, nothing more. List: 1 (yes) = active, 0 (no) = inactive

Below, 5 compounds whose answers are already recorded.
N#Cc1c(N2CCOCC2)nc(=S)[nH]c1-c1ccccc1    0 (no)
C[C@]12CC[C@@H]3c4cc(O)c(O)cc4CC[C@H]3[C@@H]1CC[C@@H]2O    0 (no)
NC1CCCCC1N.O=[Se]([O-])[O-].[Pt+4] (configuration not stated)    0 (no)
COc1ccc2c(O)c(/C=C3\N=Nc4ccccc43)oc2c1C[C@@H]1CCNC[C@H]1F    0 (no)
Cn1cc(C2=C(c3c4n(c5ccccc35)CCC(CN)C4)C(=O)NC2=O)c2ccccc21 (configuration not stated)    0 (no)

Kindly review the next compound as well.
q: Hello, I am checking results. What call was entered for `COc1ccc(Cn2cc3c(c2-c2ccccc2)CCc2cnoc2-3)cc1OC` ?
a: 0 (no)

###

- Tested on: SN12C renal
- ASSAY PROCEDURE: NCI tumour cell line growth inhibition, 48 h
Examples of compounds with documented TGI follow.
Respond numerically; units are µM and should not be typed.

Take a look at these entries with their results.
Clc1ccc(Nc2ccnc(N3CCN(c4ccnc5cc(Cl)ccc45)CC3)n2)cc1    28.6
CN(C)CCCSc1nc2c(c(=N)n1-c1ccccc1)c(=S)n(-c1ccccc1)c(=S)n2-c1ccccc1    3.18

Looking up `O=[N+]([O-])c1ccc(C2=Nn3c(nnc3-c3ccc(Cl)cc3)SC2)o1` , I see its TGI listed as 23.1

Looking up `CCOC(=O)C(C(=O)OCC)c1ccc([N+](=O)[O-])o1` , I see its TGI listed as 32.2

Looking up `COc1ccc2[nH]cc(C(=O)C(=O)NC34CC5CC(CC(C5)C3)C4)c2c1` , I see its TGI listed as 51.9

###

- Test system: RXF 393 renal
- ASSAY PROCEDURE: NCI tumour cell line growth inhibition, 48 h
PROPERTY LABEL: TGI

Take a look at these entries with their results.
COC(=O)C1=C(OC(=O)c2ccccc2)C(C(=O)OC)[C@@]2(O)[C@@H](C(=O)OC)[C@H](C)C[C@@H]1[C@@H]2C(=O)OC (stereo partly specified)    42.9 µM
CCOC(=O)Cc1csc(Nc2ccc(OCC)cc2)n1    > 100 µM
COC(=O)C(C)(C)[C@@H]1OC(=O)N(S(=O)(=O)c2c(C)cc(C)cc2C)[C@H]1C(C)C    > 100 µM
CNC(=O)NCCN1CC2CCC(CC2)C1    > 10 µM
c1ccc2cc(NCNc3ccc4ccccc4c3)ccc2c1    29.9 µM
O=C(O)C(C(=O)O)P(=S)(S)c1ccccc1 (stereo unspecified)    > 100 µM

Looking up COc1ccc(C(O)(c2ccccc2)c2nccc3ccccc23)cc1 (stereo unspecified) , I see its TGI listed as 44.2 µM

Looking up `C=C1C(=O)O[C@H]2C[C@@H]1CC/C(C)=C/CC/C(C)=C/CC[C@@]2(C)O` , I see its TGI listed as > 100 µM

Looking up `O=c1[nH]nc(Cc2ccccc2)n1CCCl` , I see its TGI listed as > 100 µM

Looking up `Cc1occc1C(=S)Nc1ccc(Cl)c(/C=N/OC(C)(C)C)c1` , I see its TGI listed as 31.1 µM

Looking up `COc1ccc2c(c1)oc(=O)c1cc(OC)ccc12` , I see its TGI listed as > 100 µM

###

- Test system: SF-268 CNS
- ASSAY PROCEDURE: NCI tumour cell line growth inhibition, 48 h
Where a SMILES comes first, the peptide text is derived from it. Bridges are numbered along the chain shown (N, C = ends). [ ]: non-standard residue; d: D form. The star is where a group is joined. ξ: configuration not given here. ξDab(CH2SO3H) = NC(CCNCS(=O)(=O)O)C(=O)O; Heptanoyl(6-Me) = CC(C)CCCCC(=O)*; Dab = NCC[CH](N)C(=O)O
Examples of molecules with documented TGI follow.

COc1cc2oc(-c3ccc4c(c3)OCO4)c(OC)c(=O)c2c(OC)c1O    > 100 µM
OCCCNc1ncnc2[nH]ncc12    > 100 µM
O=[N+]([O-])c1ccc(C2=Nn3c(nnc3-c3ccc(Cl)cc3)SC2)o1    30.2 µM
CCC(C)C1NC(=O)C(CCNCS(=O)(=O)O)NC(=O)C(NC(=O)C(CCNCS(=O)(=O)O)NC(=O)C(NC(=O)C(CCNCS(=O)(=O)O)NC(=O)CCCCC(C)C)C(C)O)CCNC(=O)C(C(C)O)NC(=O)C(CCNCS(=O)(=O)O)NC(=O)C(CCNCS(=O)(=O)O)NC(=O)C(C(C)CC)NC1=O (stereo unspecified) ({Heptanoyl(6-Me)}-[ξDab(CH2SO3H)]T[ξDab(CH2SO3H)][Dab][ξDab(CH2SO3H)]II[ξDab(CH2SO3H)][ξDab(CH2SO3H)]T; lactam 4-C; configuration not given here)    > 25 µM
COc1cc(C2c3cc4c(cc3[C@H](NS(C)(=O)=O)C3COC(=O)[C@H]23)OCO4)cc(OC)c1OC (stereo partly specified)    > 100 µM
O=C(CCCN1CCC(Nc2ccccc2)(c2nnnn2C2CCCCC2)CC1)c1ccc(F)cc1    9.25 µM
Cc1nc(N2N=C(c3ccc(Cl)cc3)CCC2=O)sc1[N+](=O)[O-]    > 100 µM
N#CC1=C(c2ccccc2)C(=C2Nc3ccccc3N2)C2S/C(=C\c3ccccc3)C(=O)N2C1=N (stereo unspecified)    6.35 µM
[N-]=[N+]=Nc1c(Cl)c(Cl)nc2ccccc12    > 100 µM
O=C1[C@@H]2C(c3ccccc3[N+](=O)[O-])=[N+](c3ccccc3)O[C@@H]2C(=O)N1c1ccc(Cc2ccc(N3C(=O)[C@H]4C(c5ccccc5[N+](=O)[O-])=[N+](c5ccccc5)O[C@H]4C3=O)cc2)cc1    > 100 µM

Looking up `N=C(N)SCc1c2ccccc2c(CSC(=N)N)c2ccccc12` , I see its TGI listed as 26 µM

Looking up `CCOC(=O)c1cc(C(=O)c2cc(OC)c(OC)c(OC)c2)n2c1ccc1ccccc12` , I see its TGI listed as > 100 µM

Looking up `COc1ccc(-c2cc(-c3ccc(O)cc3O)c(C#N)c(=O)[nH]2)cc1` , I see its TGI listed as 73.5 µM

Looking up CCN(CC)C1CCC(C2c3cc4c(cc3OC(N3CCOCC3)C2C)OCO4)CC1 (stereo unspecified) , I see its TGI listed as > 100 µM

Looking up CCC1CCN=C(NS(=O)(=O)c2cc(C)c(Cl)cc2S)N1 (stereo unspecified) , I see its TGI listed as > 100 µM

Looking up `O=C(O)c1cc(=O)c2c(OCC(O)COc3cccc4oc(C(=O)O)cc(=O)c34)cccc2o1` , I see its TGI listed as > 100 µM

###

Examples of compounds with documented TGI follow.
- Test system: DMS 273 small cell lung
- ASSAY PROCEDURE: NCI tumour cell line growth inhibition, 48 h

Take a look at these entries with their results.
C=CCN1COc2c(cc3c4c(cccc24)C(=O)O3)C1    > 100 µM
CCC(O)C1Cc2c(C)cc3c(c2O1)C(=O)c1ccccc1C3=O (centres undefined)    > 100 µM
CCCNCC(=O)O[C@]1(CC)C(=O)OCc2c1cc1n(c2=O)Cc2cc3ccccc3nc2-1    0.114 µM

# ---- query compound ----
Looking up CCOC(=O)NC/C=C/COC1CCCCO1 (centres undefined) , I see its TGI listed as > 100 µM

###

- System: ACHN renal
- ASSAY PROCEDURE: NCI tumour cell line growth inhibition, 48 h; in the data active means GI50 below about 0.43 µM; inactive means the rest
Give one outcome, nothing more. List: TRUE = active, FALSE = inactive

CC(C)(C)[Si](C)(C)OC1[C@@H](O[Si](C)(C)C(C)(C)C)[C@@H](CNC(=O)NC(=O)CF)O[C@H]1n1cnc2c(NC(=O)Nc3ccccc3)ncnc21 (stereo partly specified)    FALSE
CCCc1cc(=O)n2c(C(=O)Nc3cccc(C(=O)OCC)c3)c(C(=O)Nc3ccc(F)cc3)sc2n1    FALSE
COc1cc2c(cc1Cc1cccc(Cl)c1F)c(=O)c(C(=O)O)cn2[C@@H](CO)C(C)C    FALSE
NC1CCCCC1N.O=[Se]([O-])[O-].[Pt+4] (stereo unspecified)    FALSE

q: Hello, I am checking results. What call was entered for `CC(=O)Nc1c(I)c(NC(C)=O)c(I)c(C(=O)O)c1I` ?
a: FALSE

###

- Tested on: SF-295 CNS
- ASSAY PROCEDURE: NCI tumour cell line growth inhibition, 48 h
Examples of compounds with documented TGI follow.
Respond numerically; units are µM and should not be typed.

COc1ccc2c(c1)CC[C@@H]1[C@@H]2CC[C@]2(C)c3c(cc(C(=O)O)c4sccc34)C[C@@H]12    31.9

# ---- query compound ----
Looking up C=C1CCCC(C)(C)C1CCC1(C)CCC(C(C)C(=O)OC)OO1 (centres undefined) , I see its TGI listed as 10.2

FYI, the data here is from PubChem BioAssay (NCI).
